Measured growth, listed per entry for reference.
System: MCF7 breast
Experiment: NCI-60 one-dose screen, 48 h (100 = growth as untreated, 0 = no growth, -100 = all killed)
Conditions: 10 µM
About 83,000 compounds went through this panel and 20% of them were active in at least one assay; those are over-represented in the sample as a whole.
quantity_kind: growth (%)

{"compound": "COc1ccc(/C(CSc2nnc(-c3c[nH]c4ccccc34)n2-c2ccccc2)=N/O)cc1", "reading_unit": "%", "endpoint_value": 14.5}
{"compound": "CCOP(=O)(OCC)O[C@H]1CCC(=O)[C@@H]2[C@H]1[C@H]1C[C@@H]3[C@@]4(C)CCCC(C)(C(=O)OC)[C@@H]4CC[C@@]23C=C1C(C)C (stereo partly drawn)", "reading_unit": "%", "endpoint_value": 33.2}
{"compound": "O=C(Nc1ccc(OCC(=O)c2ccccc2)cc1)Nc1ccc(Cl)c(C(F)(F)F)c1", "reading_unit": "%", "endpoint_value": 35}
{"compound": "COc1cc(-c2nc3cc(Cl)c(Cl)cc3[nH]2)ccc1OCc1nnc(-c2ccc(Br)cc2)o1", "reading_unit": "%", "endpoint_value": 5.68}
{"compound": "Cc1ccc(C(=O)NNC(=O)CSc2nc3ccccc3c(=O)[nH]2)cc1", "reading_unit": "%", "endpoint_value": 92.3}
{"compound": "N#Cc1c(NC(=O)c2ccc(C(F)(F)F)c(Cl)c2)sc2c1CCC(=O)C2", "reading_unit": "%", "endpoint_value": -3.57}
{"compound": "COc1ccc(-c2nc(-c3ccccc3)c(-c3ccccc3)n2-c2ccc(S(=O)(=O)Nc3ncccn3)cc2)cc1OC", "reading_unit": "%", "endpoint_value": 71.2}
{"compound": "CCCCCc1ccc(S(=O)(=O)Nc2cc(-c3csc(N(C)C(C)=O)n3)ccc2N2CCN(C)CC2)cc1", "reading_unit": "%", "endpoint_value": 4.08}

Cited source for all entries: PubChem BioAssay (NCI)
